- Tested on: HL-60(TB) leukemia
- Assay method text: NCI tumour cell line growth inhibition, 48 h
Quantity name: TGI (µM)

1. O=C1NC(=Nc2ccccc2)C(=Nc2ccccc2)N1c1ccccc1 ... 52.8
2. CCC[CH2][Sn]([CH2]CCC)([O]C(=O)c1cccc(F)c1F)[O]C(=O)c1cccc(F)c1F ... 2.4
3. CC(C)(C)c1nc(-c2cccc(NS(=O)(=O)c3c(F)cccc3F)c2F)c(-c2ccnc(N)n2)s1 ... 37.4

---

- System: SF-268 CNS
- Assay method text: NCI tumour cell line growth inhibition, 48 h
Quantity name: TGI (µM)

1) CCCCCCCCCCOC(=O)c1cc[n+](C)cc1 ... 35.3
2) CC(C)=C[C@@H]1O[C@H](O)[C@@H]([C@H]2CC[C@@]3(C)[C@@H]4CC[C@H]5C(C)(C)C(=O)CC[C@@]56C[C@@]46CC[C@]23C)[C@@H]1O ... 39.4
3) CC[C@@H](O)C[C@H]1CCC[C@@]2(C[C@@H]3OC(=O)/C=C/[C@@](C)(O)[C@@H](O)[C@H](C)[C@@H](O)[C@H](OC4CCC(N(C)C)C(C)O4)[C@@H](O)[C@](C)(O)CCCCC/C=C/[C@@H]4CC(C)(C)O[C@@]4(O)C[C@H](O2)[C@H]3C)O1 (some centres not stated) ... 35.2

Reference for the values: PubChem BioAssay (NCI)
